# Procedure Text: water solubility
# Format: physicochemical
# Condition Info: room temperature
Classification field: 1 = Water solubility at or over 500 µg/mL; 0 = Water solubility under 500 µg/mL.

The examples below pair each entry with its known result.
O=Cc1ccc2c(c1)OCO2 [HELIOTROPIN/PIPERONAL]
1
CC(C=O)Cc1ccc(C(C)C)cc1 (stereo not drawn)
0
CCCCCC1C(=O)CCC1CC(=O)OC (stereo not drawn) [HEDION]
0
CCCCCC/C(C=O)=C\c1ccccc1 [HEXYLZIMTALDEHYD ALPHA]
0
C=CC(C)CCCC(C)(C)O (stereo not drawn) [DIHYDROMYRCENOL]
1
CCCCCC1CCC(=O)O1 (stereo not drawn) [ALDEHYD C18 SOG.]
1
CC(=O)OC1CCCCC1C(C)(C)C (stereo not drawn) [AGRUMEX LC]
0

Now examine the next entry.
Does the compound O=C1CCCCCCCCCCCC(=O)OCCO1 [ETHYLENBRASSYLAT] have recorded Water solubility that is 500 µg/mL or more? 0

FYI, the data here is from patent US20220387268A1.
